Target: Epidermal growth factor receptor (Homo sapiens)
Sequence (P00533 whole entry): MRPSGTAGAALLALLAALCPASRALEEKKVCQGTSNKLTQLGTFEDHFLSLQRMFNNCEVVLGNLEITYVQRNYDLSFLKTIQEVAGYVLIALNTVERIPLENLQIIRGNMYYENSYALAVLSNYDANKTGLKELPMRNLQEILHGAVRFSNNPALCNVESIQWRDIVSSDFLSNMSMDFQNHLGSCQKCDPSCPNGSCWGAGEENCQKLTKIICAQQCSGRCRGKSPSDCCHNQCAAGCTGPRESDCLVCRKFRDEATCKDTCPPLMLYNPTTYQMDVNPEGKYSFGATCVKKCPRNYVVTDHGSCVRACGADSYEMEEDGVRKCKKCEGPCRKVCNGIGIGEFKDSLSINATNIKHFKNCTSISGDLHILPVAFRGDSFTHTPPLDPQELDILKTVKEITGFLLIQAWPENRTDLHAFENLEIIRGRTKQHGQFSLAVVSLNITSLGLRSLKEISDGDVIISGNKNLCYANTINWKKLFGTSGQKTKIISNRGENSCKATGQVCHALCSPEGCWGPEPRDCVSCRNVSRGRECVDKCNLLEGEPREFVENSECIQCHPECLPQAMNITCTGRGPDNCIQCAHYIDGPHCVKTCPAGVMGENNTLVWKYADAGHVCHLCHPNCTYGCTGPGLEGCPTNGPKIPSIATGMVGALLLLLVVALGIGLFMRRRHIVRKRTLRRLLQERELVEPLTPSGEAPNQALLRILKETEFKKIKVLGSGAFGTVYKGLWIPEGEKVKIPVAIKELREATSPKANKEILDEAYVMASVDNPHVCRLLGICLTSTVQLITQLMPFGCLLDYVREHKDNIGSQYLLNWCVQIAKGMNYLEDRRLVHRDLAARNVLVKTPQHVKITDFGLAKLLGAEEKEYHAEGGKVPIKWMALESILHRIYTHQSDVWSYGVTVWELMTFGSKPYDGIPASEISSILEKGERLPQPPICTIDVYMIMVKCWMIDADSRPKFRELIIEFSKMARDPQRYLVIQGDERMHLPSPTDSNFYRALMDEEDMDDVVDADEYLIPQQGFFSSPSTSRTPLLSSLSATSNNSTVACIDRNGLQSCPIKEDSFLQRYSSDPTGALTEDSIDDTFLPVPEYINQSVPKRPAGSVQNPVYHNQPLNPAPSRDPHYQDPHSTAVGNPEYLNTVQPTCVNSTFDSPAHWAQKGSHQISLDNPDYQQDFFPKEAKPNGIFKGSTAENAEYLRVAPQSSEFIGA
Assay: Inhibition of recombinant human EGFR expressed in baculovirus by fluorescence based assay
Quantity name: IC50 (nM)

Examples with their reported IC50 follow.
O=C(NCCN1CCOCC1)Nc1ccc2ncnc(Nc3ccc(F)c(Cl)c3)c2c1 2.92
C#Cc1cccc(Nc2ncnc3ccc(NC(N)=O)cc23)c1 2.22
NC(=O)Nc1ccc2ncnc(Nc3ccc(OCc4cccc(F)c4)c(Cl)c3)c2c1 2.03
NC(=O)Nc1ccc2ncnc(Nc3ccc(Br)cc3)c2c1 0.803
Fc1cccc(COc2ccc(Nc3ncnc4ccc(NC(=S)NCCN5CCOCC5)cc34)cc2Cl)c1 2.26

[P] S=C(NCCN1CCOCC1)Nc1ccc2ncnc(Nc3ccc(Cl)cc3)c2c1
[Q] S=C(NCCN1CCOCC1)Nc1ccc2ncnc(Nc3cccc(Br)c3)c2c1
[R] O=C(NCCN1CCCCC1)Nc1ccc2ncnc(Nc3ccc(F)c(Cl)c3)c2c1
[S] CC(=O)Nc1ccc2ncnc(Nc3ccc(F)c(Cl)c3)c2c1
Request: // ranking: key=IC50, reverse=True Please list the labels according to the requested order.
Response: P, Q, R, S
(P: 5.06 nM, Q: 1.81 nM, R: 1.06 nM, S: 0.662 nM)

----------
Target: UniProt:P04626
Sequence (P04626 whole entry, the tested form may be a part): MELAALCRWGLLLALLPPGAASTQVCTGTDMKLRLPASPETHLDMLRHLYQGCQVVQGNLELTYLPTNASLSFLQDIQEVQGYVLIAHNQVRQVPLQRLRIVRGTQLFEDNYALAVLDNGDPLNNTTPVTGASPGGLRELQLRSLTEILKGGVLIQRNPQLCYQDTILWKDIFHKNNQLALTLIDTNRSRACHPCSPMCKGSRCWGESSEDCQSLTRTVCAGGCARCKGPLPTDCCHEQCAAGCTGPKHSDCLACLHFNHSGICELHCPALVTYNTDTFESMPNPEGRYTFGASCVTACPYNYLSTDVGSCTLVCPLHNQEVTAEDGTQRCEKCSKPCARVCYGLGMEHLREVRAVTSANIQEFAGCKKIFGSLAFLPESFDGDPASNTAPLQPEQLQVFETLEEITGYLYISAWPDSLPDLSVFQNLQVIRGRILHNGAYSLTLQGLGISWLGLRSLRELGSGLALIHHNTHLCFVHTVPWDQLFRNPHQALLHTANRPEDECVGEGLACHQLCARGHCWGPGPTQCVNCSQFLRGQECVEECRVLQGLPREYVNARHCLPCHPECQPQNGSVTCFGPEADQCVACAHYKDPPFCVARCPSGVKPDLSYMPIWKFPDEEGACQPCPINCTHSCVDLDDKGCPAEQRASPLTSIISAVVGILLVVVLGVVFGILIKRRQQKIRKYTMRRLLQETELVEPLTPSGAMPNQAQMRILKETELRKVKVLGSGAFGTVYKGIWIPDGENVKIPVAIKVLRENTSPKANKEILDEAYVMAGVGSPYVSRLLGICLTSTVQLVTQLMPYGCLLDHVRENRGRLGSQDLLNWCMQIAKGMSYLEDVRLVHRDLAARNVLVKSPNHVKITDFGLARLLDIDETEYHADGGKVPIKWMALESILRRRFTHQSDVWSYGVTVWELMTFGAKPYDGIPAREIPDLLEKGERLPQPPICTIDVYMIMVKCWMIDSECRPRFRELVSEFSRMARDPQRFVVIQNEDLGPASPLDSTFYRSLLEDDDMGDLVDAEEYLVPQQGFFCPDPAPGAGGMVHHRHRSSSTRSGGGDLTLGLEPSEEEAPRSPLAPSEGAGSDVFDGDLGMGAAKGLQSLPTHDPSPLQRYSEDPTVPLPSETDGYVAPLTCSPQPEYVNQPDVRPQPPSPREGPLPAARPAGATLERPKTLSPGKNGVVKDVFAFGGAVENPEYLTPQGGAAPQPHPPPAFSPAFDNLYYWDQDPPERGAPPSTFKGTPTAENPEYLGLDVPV
Assay: Inhibition of His-tagged human recombinant Her2 (676 to 1255 residues) expressed in baculovirus by fluorescence based assay
Quantity name: IC50 (nM)

Some solved cases for reference:
NC(=O)Nc1ccc2ncnc(Nc3ccc(OCc4cccc(F)c4)c(Cl)c3)c2c1 26.8
CC(=O)Nc1ccc2ncnc(Nc3ccc(OCc4cccc(F)c4)c(Cl)c3)c2c1 32.3
Fc1cccc(COc2ccc(Nc3ncnc4ccc(NC(=S)NCCN5CCCCC5)cc34)cc2Cl)c1 40.6
O=C(NCCN1CCCCC1)Nc1ccc2ncnc(Nc3ccc(OCc4cccc(F)c4)c(Cl)c3)c2c1 19.2

[1] Fc1cccc(COc2ccc(Nc3ncnc4ccc(NC(=S)NCCN5CCOCC5)cc34)cc2Cl)c1
[2] Fc1cccc(COc2ccc(Nc3ncnc4ccc(NC(=S)NCCCN5CCOCC5)cc34)cc2Cl)c1
Request: I would appreciate it if you could say which entry, 1 or 2 , has the lower IC50 value. Give the label of your selection.
Response: 2

----------
Biological target: Epidermal growth factor receptor (Homo sapiens)
Assay: Inhibition of recombinant human EGFR expressed in baculovirus by fluorescence based assay
Quantity name: IC50 (nM)

Some entries whose results are on file:
O=C(NCCN1CCOCC1)Nc1ccc2ncnc(Nc3cccc(Br)c3)c2c1 1.43
S=C(NCCN1CCOCC1)Nc1ccc2ncnc(Nc3ccc(Cl)c(Cl)c3)c2c1 9.05
C#Cc1cccc(Nc2ncnc3ccc(NC(C)=O)cc23)c1 2.04
Fc1ccc(Nc2ncnc3ccc(NC(=S)NCCN4CCOCC4)cc23)cc1Cl 2.25
NC(=O)Nc1ccc2ncnc(Nc3ccc(F)c(Cl)c3)c2c1 0.854

[a] CC(=O)Nc1ccc2ncnc(Nc3ccc(OCc4cccc(F)c4)c(Cl)c3)c2c1
[b] O=C(NCCN1CCCCC1)Nc1ccc2ncnc(Nc3cccc(Br)c3)c2c1
[c] Fc1cccc(COc2ccc(Nc3ncnc4ccc(NC(=S)NCCCN5CCOCC5)cc34)cc2Cl)c1
Request: Rank ascending by IC50. A complete answer lists every label in the requested sequence.
Response: b, c, a

----------
Experiment: Antiproliferative activity against gefitinib-sensitive human PC9 cells assessed as cell viability after 72 hrs by cell titer-glo luminescence assay
Type: functional, cell-based
Conditions: PC-9, 72 h
Quantity name: pIC50
// field semantics: pIC50 = negative decimal log of concentration (mol/L)

Example entries and their recorded answers appear below.
CC(=O)Nc1ccc2ncnc(Nc3ccc(F)c(Cl)c3)c2c1 6.65
Fc1cccc(COc2ccc(Nc3ncnc4ccc(NC(=S)NCCN5CCCCC5)cc34)cc2Cl)c1 5.67
O=C(NCCN1CCCCC1)Nc1ccc2ncnc(Nc3ccc(OCc4cccc(F)c4)c(Cl)c3)c2c1 5.80

The recorded pIC50 for entry NC(=O)Nc1ccc2ncnc(Nc3ccc(F)c(Cl)c3)c2c1 equals 6.02

GET /value?item= CC(=O)Nc1ccc2ncnc(Nc3ccc(OCc4cccc(F)c4)c(Cl)c3)c2c1 &field=pIC50 returns 6.18

----------
Experiment: Antiproliferative activity against gefitinib-resistant human PC9/GR4 cells expressing Del19/T790M double mutant assessed as cell viability after 72 hrs by cell titer-glo luminescence assay
Type: functional, cell-based
Conditions: PC9/GR4, 72 h
In this section we review reported IC50 values for a set of molecules.
Report only the number, with the unit µM understood.

See these solved cases before continuing.
O=C(NCCN1CCCCC1)Nc1ccc2ncnc(Nc3ccc(OCc4cccc(F)c4)c(Cl)c3)c2c1 2.16
CC(=O)Nc1ccc2ncnc(Nc3ccc(OCc4cccc(F)c4)c(Cl)c3)c2c1 8.31
CC(=O)Nc1ccc2ncnc(Nc3ccc(F)c(Cl)c3)c2c1 12.6

// Fc1cccc(COc2ccc(Nc3ncnc4ccc(NC(=S)NCCN5CCCCC5)cc34)cc2Cl)c1 : IC50 value = 5.7

Per the record, NC(=O)Nc1ccc2ncnc(Nc3ccc(F)c(Cl)c3)c2c1 has IC50 of 21.7

Sourced from ChEMBL document CHEMBL3813636
